Test system: Nrf2 / ARE-dependent luciferase in AREc32 reporter cell line
Assay: AREc32 luciferase reporter activation (Nrf2 induction)
Type: cell-based, human
Conditions: Homo sapiens, Arec32; Table 3; oleanolic acid derivative analogs; read-out: Avg ARE EC-2X
Experimental: Effect on Ludferase Reporter Activation. Nrf2 is a transcription factor that binds to the antioxidant response element (ARE) sequence in the promoter regions of its target genes. […] Measurement of ARE-dependent luciferase activity allows quantitative assessment of Nrf2 induction. […] The effect of several compounds disclosed herein on luciferase reporter activation was assessed in the AREc32 reporter cell line (see Table 10 and Table 11). […]
Could you please report measured EC (2-fold) for the items listed next?
Please give a number only; it is taken to be in µM.

Lookup: Test system Nrf2 / ARE-dependent luciferase in AREc32 reporter cell line; read-out EC (2-fold); what value for CC1(C)CC[C@]2(N3CCC3=O)CC[C@]3(C)[C@H](C(=O)C=C4[C@@]5(C)C=C(C#N)C(=O)C(C)(C)[C@@H]5CC[C@]43C)[C@@H]2C1 [CC74, reference compound] ?
Found: 0.0361

Lookup: Test system Nrf2 / ARE-dependent luciferase in AREc32 reporter cell line; read-out EC (2-fold); what value for C[C@@H]1[C@H]2[C@H]3C(=O)C=C4[C@@]5(C)C=C(C#N)C(=O)C(C)(C)[C@@H]5CC[C@@]4(C)[C@]3(C)CC[C@@]2(N2CCOC2=O)CC[C@H]1C [CC59, reference compound] ?
Found: 0.0236

Lookup: Test system Nrf2 / ARE-dependent luciferase in AREc32 reporter cell line; read-out EC (2-fold); what value for CC1(C)CC[C@]2(CO)CC[C@]3(C)[C@H](C(=O)C=C4[C@@]5(C)C=C(C#N)C(=O)C(C)(C)[C@@H]5CC[C@]43C)[C@@H]2C1 [CC13, reference compound] ?
Found: 0.00882

Lookup: Test system Nrf2 / ARE-dependent luciferase in AREc32 reporter cell line; read-out EC (2-fold); what value for Cc1nc([C@]23CCC(C)(C)C[C@H]2[C@H]2C(=O)C=C4[C@@]5(C)C=C(C#N)C(=O)C(C)(C)[C@@H]5CC[C@@]4(C)[C@]2(C)CC3)no1 [CC82, reference compound] ?
Found: 0.0221

Lookup: Test system Nrf2 / ARE-dependent luciferase in AREc32 reporter cell line; read-out EC (2-fold); what value for CCC(=O)NC[C@]12CCC(C)(C)C[C@H]1[C@H]1C(=O)C=C3[C@@]4(C)C=C(C#N)C(=O)C(C)(C)[C@@H]4CC[C@@]3(C)[C@]1(C)CC2 [CC23, reference compound] ?
Found: 0.00237

----------
Could you please report measured EC (2-fold) for the items listed next?
Test system: Nrf2 / ARE-dependent luciferase in AREc32 reporter cell line
Experiment: AREc32 luciferase reporter activation (Nrf2 induction)
Type: cell-based, human
Details: Homo sapiens, Arec32; Table 3; oleanolic acid derivative analogs; read-out: Avg ARE EC-2X
Please give a number only; it is taken to be in µM.

Lookup: Requested read-out: EC (2-fold). Entry: CC1(C)CC[C@]2(CN3CCCC3=O)CC[C@]3(C)[C@H](C(=O)C=C4[C@@]5(C)C=C(C#N)C(=O)C(C)(C)[C@@H]5CC[C@]43C)[C@@H]2C1 [CC15, reference compound]
Found: 0.00666

Lookup: Requested read-out: EC (2-fold). Entry: [2H]C([2H])([2H])C(=O)NC[C@]12CCC(C)(C)C[C@H]1[C@H]1C(=O)C=C3[C@@]4(C)C=C(C#N)C(=O)C(C)(C)[C@@H]4CC[C@@]3(C)[C@]1(C)CC2 [CC24, reference compound]
Found: 0.00296

Lookup: Requested read-out: EC (2-fold). Entry: CC1(C)CC[C@]2(CN3CCOC3=O)CC[C@]3(C)[C@H](C(=O)C=C4[C@@]5(C)C=C(C#N)C(=O)C(C)(C)[C@@H]5CC[C@]43C)[C@@H]2C1 [CC41, reference compound]
Found: 0.00512

Lookup: Requested read-out: EC (2-fold). Entry: CNC(=O)NC[C@]12CCC(C)(C)C[C@H]1[C@H]1C(=O)C=C3[C@@]4(C)C=C(C#N)C(=O)C(C)(C)[C@@H]4CC[C@@]3(C)[C@]1(C)CC2 [CC26, reference compound]
Found: 0.00275

Lookup: Requested read-out: EC (2-fold). Entry: CC1(C)CC[C@]2(CNC(=O)OC(C)(C)C)CC[C@]3(C)[C@H](C(=O)C=C4[C@@]5(C)C=C(C#N)C(=O)C(C)(C)[C@@H]5CC[C@]43C)[C@@H]2C1 [CC20, reference compound]
Found: 0.0211

Lookup: Requested read-out: EC (2-fold). Entry: CC1(C)CC[C@]2(N)CC[C@]3(C)[C@H](C(=O)C=C4[C@@]5(C)C=C(C#N)C(=O)C(C)(C)[C@@H]5CC[C@]43C)[C@@H]2C1 [CC16, reference compound]
Found: 0.0277

Lookup: Requested read-out: EC (2-fold). Entry: CC1(C)CC[C@]2(CN3CCC3)CC[C@]3(C)[C@H](C(=O)C=C4[C@@]5(C)C=C(C#N)C(=O)C(C)(C)[C@@H]5CC[C@]43C)[C@@H]2C1 [CC55, reference compound]
Found: 0.022

Lookup: Requested read-out: EC (2-fold). Entry: CC1(C)CC[C@]2(c3nc(CO)no3)CC[C@]3(C)[C@H](C(=O)C=C4[C@@]5(C)C=C(C#N)C(=O)C(C)(C)[C@@H]5CC[C@]43C)[C@@H]2C1 [CC10, reference compound]
Found: 0.00339

Lookup: Requested read-out: EC (2-fold). Entry: CC1(C)CC[C@]2(CNC(=O)C3CC3)CC[C@]3(C)[C@H](C(=O)C=C4[C@@]5(C)C=C(C#N)C(=O)C(C)(C)[C@@H]5CC[C@]43C)[C@@H]2C1 [CC19, reference compound]
Found: 0.00322

----------
Could you please report measured IC50 for the items listed next?
Tested on: IFNγ-induced NO production in RAW 264.7 cells
Assay: Nitric Oxide Suppression Assay (IFNγ-induced NO, Griess nitrite readout)
Type: cell-based, mouse
Conditions: Mus musculus, RAW264.7, Table 2; RAW 264.7 cells, 2 h pretreatment, 20 ng/mL interferon gamma 24 h; read-out: Avg NO IC50 (nM) (Mean ± SD)
Field note: include the unit after the figure.

Lookup: Test system IFNγ-induced NO production in RAW 264.7 cells; read-out IC50; what value for C[C@@H]1[C@H]2[C@H]3C(=O)C=C4[C@@]5(C)C=C(C#N)C(=O)C(C)(C)[C@@H]5CC[C@@]4(C)[C@]3(C)CC[C@@]2(CN(C)C(=O)C(F)F)CC[C@H]1C ?
Found: 10.4 nM

Lookup: Test system IFNγ-induced NO production in RAW 264.7 cells; read-out IC50; what value for COC(=O)[C@]12CC[C@@H](C)[C@H](C)[C@H]1[C@H]1C(=O)C[C@@H]3[C@@]4(C)C=C(C#N)C(=O)C(C)(C)[C@@H]4CC[C@@]3(C)[C@]1(C)CC2 ?
Found: 102 nM

Lookup: Test system IFNγ-induced NO production in RAW 264.7 cells; read-out IC50; what value for CNC(=O)C[C@]12CC[C@@H](C)[C@H](C)[C@H]1[C@H]1C(=O)C=C3[C@@]4(C)C=C(C#N)C(=O)C(C)(C)[C@@H]4CC[C@@]3(C)[C@]1(C)CC2 ?
Found: 4.69 nM

----------
Test system: IFNγ-induced NO production in RAW 264.7 cells
Test: Nitric Oxide Suppression Assay (IFNγ-induced NO, Griess nitrite readout)
Assay type: cell-based, mouse
Conditions: Mus musculus, RAW264.7, Table 2; RAW 264.7 cells, 2 h pretreatment, 20 ng/mL interferon gamma 24 h; read-out: Avg NO IC50 (nM) (Mean ± SD)
Procedure: Tissue Culture: RAW 264.7, a mouse macrophage cell line, was obtained from American Type Culture Collection (Manassas VA) and maintained in the log phase of growth in Roswell Park Memorial Institute Medium 1640 (RPMI 1640) supplemented with 10% heat inactivated fetal bovine serum and 1% penicillin-streptomycin. […] Nitric Oxide Suppression Assay. […] Afterwards, air bubbles were removed using ethanol vapor and absorbance was measured using a Spectramax M2e plate reader with a wavelength set to 525 nm. […]
recorded metric: IC50
Field note: include the unit after the figure.

Lookup: Requested read-out: IC50. Entry: C[C@@H]1[C@H]2[C@H]3C(=O)C=C4[C@@]5(C)C=C(C#N)C(=O)C(C)(C)[C@@H]5CC[C@@]4(C)[C@]3(C)CC[C@@]2(n2ccnc2)CC[C@H]1C
Found: 23.4 nM

Lookup: Requested read-out: IC50. Entry: CCNC(=O)N[C@]12CC[C@@H](C)[C@H](C)[C@H]1[C@H]1C(=O)C=C3[C@@]4(C)C=C(C#N)C(=O)C(C)(C)[C@@H]4CC[C@@]3(C)[C@]1(C)CC2
Found: 25.5 nM

Lookup: Requested read-out: IC50. Entry: C[C@@H]1[C@H]2[C@H]3C(=O)C=C4[C@@]5(C)C=C(C#N)C(=O)C(C)(C)[C@@H]5CC[C@@]4(C)[C@]3(C)CC[C@@]2(N)CC[C@H]1C
Found: 15 nM

Lookup: Requested read-out: IC50. Entry: C[C@@H]1[C@H]2[C@H]3C(=O)C=C4[C@@]5(C)C=C(C#N)C(=O)C(C)(C)[C@@H]5CC[C@@]4(C)[C@]3(C)CC[C@@]2(CNC(=O)C2CCC2)CC[C@H]1C
Found: 5.11 nM

Lookup: Requested read-out: IC50. Entry: C[C@@H]1[C@H]2[C@H]3C(=O)C=C4[C@@]5(C)C=C(C#N)C(=O)C(C)(C)[C@@H]5CC[C@@]4(C)[C@]3(C)CC[C@@]2(N2CCCC2=O)CC[C@H]1C
Found: 26 nM

Lookup: Requested read-out: IC50. Entry: C[C@@H]1[C@H]2[C@H]3C(=O)C=C4[C@@]5(C)C=C(C#N)C(=O)C(C)(C)[C@@H]5CC[C@@]4(C)[C@]3(C)CC[C@@]2(C(=O)NC2CC2)CC[C@H]1C
Found: 28.5 nM

Lookup: Requested read-out: IC50. Entry: C[C@@H]1[C@H]2[C@H]3C(=O)C=C4[C@@]5(C)C=C(C#N)C(=O)C(C)(C)[C@@H]5CC[C@@]4(C)[C@]3(C)CC[C@@]2(CNC(=O)N2CCC2)CC[C@H]1C
Found: 4.03 nM

Lookup: Requested read-out: IC50. Entry: C[C@@H]1[C@H]2[C@H]3C(=O)C=C4[C@@]5(C)C=C(C#N)C(=O)C(C)(C)[C@@H]5CC[C@@]4(C)[C@]3(C)CC[C@@]2(C(=O)NO)CC[C@H]1C
Found: 36.1 nM

Lookup: Requested read-out: IC50. Entry: C[C@@H]1[C@H]2[C@H]3C(=O)C=C4[C@@]5(C)C=C(C#N)C(=O)C(C)(C)[C@@H]5CC[C@@]4(C)[C@]3(C)CC[C@@]2(O)CC[C@H]1C
Found: 7.24 nM

Lookup: Requested read-out: IC50. Entry: C[C@H]1[C@H](C)CC[C@]2(Cn3cncn3)CC[C@]3(C)C(O)(C(=O)C=C4[C@@]5(C)C=C(C#N)C(=O)C(C)(C)[C@@H]5CC[C@]43C)[C@H]12 (stereo partly shown)
Found: 13.8 nM
